Would you mind telling me the reported growth of each entry?
# Test system: MDA-MB-468 breast
# assay summary: NCI-60 one-dose screen, 48 h (100 = growth as untreated, 0 = no growth, -100 = all killed)
# applied conditions: 10 µM unless noted
The panel holds about 83,000 compounds, 20% with a hit somewhere; the sample as a whole holds those more often. Activity calls are given as the source filed them. Rule for the calls: active = growth percent below 10; inactive = the rest.

Ask: Sample `CCOC(=O)c1c2c(n3ccc(NC(=O)OC(C)(C)C)cc13)C(=O)c1ncccc1C2=O` — what was its growth?
Result: -29% (active)

Ask: Sample `CCCCCCCCn1ccc2cc(NC(=O)CN3CCN(c4nc(C)cc(N5CCCCC5)n4)CC3)ccc21` — what was its growth?
Result: 73.2% (inactive)

Ask: Sample `O=C(CSc1nnc(-c2cc(-c3ccccc3)nc3ccccc23)n1-c1ccccc1)Nc1ccc(C(=O)/C=C/c2ccc(Cl)cc2)cc1` — what was its growth?
Result: 88.9% (inactive)

Ask: Sample CCN(CCNc1ccc(C)c2sc3cc(Cl)ccc3c(=O)c12)CC(C)O (configuration not stated) — what was its growth?
Result: 62.2% (inactive)

Ask: Sample `CCCCCCCCNc1cccc2c1C(=O)c1ccccc1C2=O` — what was its growth?
Result: 95.4% (inactive)

Ask: Sample O=C(Nc1ccc(N=Cc2ccccc2O)cc1)NC1C=c2ccccc2=CC1 (configuration not stated) — what was its growth?
Result: 87.1% (inactive)

Ask: Sample `COCc1nc2ccccc2[nH]1` — what was its growth?
Result: 102% (inactive)

Ask: Sample `CC(=O)c1ccc(-n2c(-c3cc(-c4ccsc4)n[nH]3)n[nH]c2=S)cc1` — what was its growth?
Result: 97.3% (inactive)

Ask: Sample c1ccc(C(c2nc3ncncc3[nH]2)N2CSc3nc4ccccc4n3C2)cc1 (configuration not stated) — what was its growth?
Result: 94.8% (inactive)

Ask: Sample `COc1ccc(/C=N/NC(=O)c2[nH]c3ccc(Br)cc3c2-c2ccccc2)o1` — what was its growth?
Result: 13% (inactive)

Ask: Sample `CC[C@H](C)[C@H]1NC(=O)[C@@H](N[C@](C)(O)[C@@H](N)CC(C)C)[C@@H](C)OC(=O)[C@H](Cc2ccc(OC)cc2)N(C)C(=O)[C@@H]2CCCN2C(=O)[C@H](CC(C)C)NC(=O)[C@@H](C)C(=O)[C@H](C(C)C)OC(=O)C[C@@H]1O` — what was its growth?
Result: -31.2% (active)

Ask: Sample `C#Cc1nc(/C=C/C(=O)NO)cs1` — what was its growth?
Result: 51.7% (inactive)

Ask: Sample `COc1cccc(/C=C/C(=O)c2ccc(NC(=O)COc3cccc4cccnc34)cc2)c1` — what was its growth?
Result: 90.9% (inactive)

Ask: Sample `CCCN=C1NC(=O)/C(=C/c2nc(-c3ccc(OC)cc3)n3ccccc23)S1` — what was its growth?
Result: 101% (inactive)

Ask: Sample `COc1cc(O)c2c(c1)[C@H]1O[C@@H]1C[C@H](O)[C@H](O)C(=O)/C=C\C[C@H](C)OC2=O` — what was its growth?
Result: -1.54% (active)

Ask: Sample `O=C1c2ccc3c4c(ccc(c24)C(=O)N1CCCNCc1ccccc1Cl)C(=O)N(CCCNCc1ccccc1Cl)C3=O` — what was its growth?
Result: -89% (active)

Ask: Sample `Cc1cc(Cc2cc(C)c(O)c(C)c2)cc(C)c1O` — what was its growth?
Result: -0.94% (active)

Ask: Sample `NC(=O)C1(Nc2ccc(Br)cc2)CCCC1` — what was its growth?
Result: 101% (inactive)

Ask: Sample `CCCCCCCCCCCCCCCCCC1=NCCN1CS(=O)(=O)O` — what was its growth?
Result: 99.2% (inactive)

Ask: Sample `CCOC(=O)c1ccc2c(c1)c1c(C)c3cccnc3c(C)c1n2C` — what was its growth?
Result: 64.4% (inactive)

Ask: Sample `COC(=O)[C@H](Cc1cn(C)cn1)NC(=O)[C@H](Cc1ccccc1)NC(=O)Nc1cc(C(F)(F)F)cc(C(F)(F)F)c1` — what was its growth?
Result: -69.6% [100 µM] (active)

Ask: Sample Cc1cc(O)c(C2=NN(c3ccc(S(N)(=O)=O)cc3)C(c3ccccc3Cl)C2)cc1Cl (configuration not stated) — what was its growth?
Result: 28.9% (inactive)

Ask: Sample `COc1cc(/C=C/C(=O)c2cc(-c3ccc(C(F)(F)F)cc3)ccc2O)cc(OC)c1OC` — what was its growth?
Result: 57.9% (inactive)

Ask: Sample `COC(=O)CC[C@@H](C)[C@H]1CC[C@H]2[C@@H]3CC[C@@H]4C[C@H](O)CC[C@]4(C)[C@H]3C[C@H](O)[C@]12C` — what was its growth?
Result: 103% (inactive)

Ask: Sample `CC(C)(C)Nc1nc2c(OCCc3ccccc3)cccn2c1-c1cccc(Oc2ccccc2)c1` — what was its growth?
Result: -12.7% (active)

Ask: Sample `COc1ccc2c(c1)/C(=C1\S/C(=N/c3nnc(C)s3)NC1=O)C(=O)N2Cc1ccc(Cl)cc1` — what was its growth?
Result: 50.9% (inactive)

Ask: Sample `COc1ccc(C(=O)/C=C/c2c(C(F)(F)F)nc3sccn23)cc1OC` — what was its growth?
Result: -21.1% (active)

* * *

# Test system: MDA-MB-468 breast
# assay summary: NCI-60 one-dose screen, 48 h (100 = growth as untreated, 0 = no growth, -100 = all killed)
# applied conditions: 10 µM unless noted
The panel holds about 83,000 compounds, 20% with a hit somewhere; the sample as a whole holds those more often. Calls of active or inactive are those of the source. Rule for the calls: active = growth percent below 10; inactive = the rest.
metric name: growth

Ask: Sample `O=C1NC(=C(Cl)Cl)/C(=N\S(=O)(=O)NCc2ccccc2)N1` — what was its growth?
Result: 45.1% (inactive)

Ask: Sample `COc1cc2c(cc1OC)-c1c(oc3c4c(ccc3c1=O)OC(C)(C)C=C4)CO2` — what was its growth?
Result: 19.2% (inactive)

Ask: Sample `COc1cc2nc(-c3ccc(Cl)cc3)cc(OCCCN3CCCC3)c2cc1OC` — what was its growth?
Result: 43.5% (inactive)

* * *

Would you mind telling me the reported growth of each entry?
# System: MDA-MB-468 breast
# assay summary: NCI-60 one-dose screen, 48 h (100 = growth as untreated, 0 = no growth, -100 = all killed)
# applied conditions: 10 µM unless noted
# Procedure: Growth inhibition of the MDA-MB-468 human Breast tumor cell line is measured as a screen for anti-cancer activity. Cells are grown in 96 well plates and exposed to the test compound for 48 hours. Compounds are tested at a single concentration, which is 10^-5 M for most compounds. The reported endpoint is percent growth (GI% or GIPRCNT), where numbers from 0 - 100% represent growth inhibition, and numbers from -100% - 0 represent cell death. […]
Compounds without any hit were thinned out: in the full panel of roughly 83,000, 20% have a hit.
// note: answer is a bare numeric in %

Ask: Sample `COc1ccc(C(=O)c2cc3c(N)c(C(=O)Nc4ccccc4)sc3nc2C)cc1` — what was its growth?
Result: 3.89

Ask: Sample `CCN(CC)CCNc1ccc(C)c2sc3cc(C)ccc3c(=O)c12` — what was its growth?
Result: 66.5

Ask: Sample `COc1cc2nc(Nc3ccc(F)cc3)nc(N)c2cc1OC` — what was its growth?
Result: 83.4

Ask: Sample `C=CCn1c(SCC(=O)Nc2cccc(C(=O)/C=C/c3ccc(OC)c(OC)c3)c2)nc2ccccc2c1=O` — what was its growth?
Result: 80.9

Ask: Sample `Fc1ccccc1-c1cnn2cc(-c3ccccc3)cnc12` — what was its growth?
Result: 124

Ask: Sample `Cc1[nH]c2ccc(F)cc2c1CCNC(=O)C1CCN(C(=O)c2ccc(-c3ccccc3)cc2)CC1` — what was its growth?
Result: 48.5

Ask: Sample `CCN(C)c1ccccc1` — what was its growth?
Result: 113

Ask: Sample `C/C(CC(C)C)=N/NC(N)=S` — what was its growth?
Result: 7.03

Ask: Sample `NC(N)=NC(N)=Nc1ccccc1-c1ccccc1` — what was its growth?
Result: 109

* * *

# Tested on: MDA-MB-468 breast
# assay summary: NCI-60 one-dose screen, 48 h
# applied conditions: 10 µM unless noted
About 83,000 compounds went through this panel and 20% of them were active in at least one assay; those are over-represented in the sample as a whole. Calls of active or inactive are those of the source. Rule for the calls: active = growth percent below 10; inactive = the rest.
Respond using exactly one of the listed classes: active, inactive

Ask: # fetch the recorded call for `O=C(Nc1ccc(N2CCNCC2)cc1)c1[nH]ncc1Nc1cc(C2CC2)ncn1` here
Result: inactive

Ask: # fetch the recorded call for `CC(C)=CCC[C@H](C)c1ccc(C)c2c1OCN(CCO)C2` here
Result: inactive

Ask: # fetch the recorded call for `O=C1c2c(c3c4cccnc4[nH]c3c3ccc4ccccc4c23)C(=O)N1CCN1CCNCC1` here
Result: inactive

Ask: # fetch the recorded call for `C#Cc1ccc(NC(=O)Cc2ccc(/C=C/C(=O)c3nccn3C)cc2)cc1` here
Result: inactive

Ask: # fetch the recorded call for `Cc1cc2cccnc2c2ncccc12` here
Result: active

Ask: # fetch the recorded call for `Cc1cc(NC(=O)c2cnc(N3CCN(CCOCCOCCOCCOCCC(=O)N[C@H](C(=O)N4C[C@H](O)C[C@H]4C(=O)N[C@@H](C)c4ccc(-c5scnc5C)cc4)C(C)(C)C)CC3)cn2)c2ncccc2c1` here
Result: active

Ask: # fetch the recorded call for `Oc1c(-c2cc(C(F)(F)F)[nH]n2)cc(Cl)c(OCc2ccc(Cl)cc2)c1-c1ccc(Cl)c(C(F)(F)F)c1` here
Result: active

Ask: # fetch the recorded call for `O=C(CN1CCN(c2cc(=O)n(-c3ccccc3)c3ccccc23)CC1)Nc1nc(-c2ccc(Cl)cc2)cs1` here
Result: active

Ask: # fetch the recorded call for `CC(C)N1C(=O)S/C(=C2/SC(=O)N(C(C)C)C2=O)C1=O` here
Result: inactive

Ask: # fetch the recorded call for O=C1OC(N(Cc2ccc(Cl)cc2)c2ccccc2)c2ccccc21 (stereo not drawn) here
Result: inactive

Ask: # fetch the recorded call for `O=S(=O)(NCCO)c1ccc(OCCOc2ccc(S(=O)(=O)NCCO)cc2)cc1` here
Result: inactive

Ask: # fetch the recorded call for `COc1ccc(CCN2C(=O)CSC2=S)cc1` here
Result: inactive

Ask: # fetch the recorded call for `CC1(C)NCCC[C@]2(C)[C@H]3C=CC4=C5C[C@](C)(CO)CC[C@]5(C)CC[C@@]4(C)[C@]3(C)CC[C@@H]12` here
Result: active

Ask: # fetch the recorded call for `Clc1nccc2c(-c3csc(-c4c[nH]c5ccccc45)n3)c[nH]c12` here
Result: inactive

Ask: # fetch the recorded call for `Cc1cc(C)cc(C(=O)Nc2cccc(C#Cc3cccc4[nH]nc(N)c34)c2)c1` here
Result: inactive

Ask: # fetch the recorded call for `CC1=C(C(=O)OCC2CCN(C(=O)OC(C)(C)C)CC2)[C@H](c2cccc(Br)c2)C2=C(CC(C)(C)CC2=O)N1` here
Result: inactive

Ask: # fetch the recorded call for `CN(C)c1ccc(-c2ccc3[nH]c(=O)nc(-c4ccc(F)cc4)c3c2)cn1` here
Result: active

Ask: # fetch the recorded call for `CC[N+](CC)=c1cc2oc3cc(N(C)C)ccc3nc-2cc1C` here
Result: active

Ask: # fetch the recorded call for O=C(O)CC(C(=O)O)/C(=C\c1ccccc1)c1ccccc1 (stereo not drawn) here
Result: inactive

Ask: # fetch the recorded call for `O=c1oc2ccccc2c(Cl)c1Cl` here
Result: active

Ask: # fetch the recorded call for `Cc1n(Cc2ccc3ccccc3c2)cc[n+]1Cc1ccc2ccccc2c1` here
Result: active

Ask: # fetch the recorded call for CCn1cc(C(=O)N/N=C/c2ccccc2)c(=O)c2cc(F)c(N3CCNC(C)C3)c(F)c21 (stereo not drawn) here
Result: inactive

Ask: # fetch the recorded call for `Cc1ccccc1-n1nnc(C(=O)Nc2ccc(-c3ccccc3)cn2)c1C` here
Result: active

Source of measurements: PubChem BioAssay (NCI)
